Catalogue of SPOT intensity readings, one per entry.
# Tgt: Bem1-2, P29366
# Sequence (P29366 139-227): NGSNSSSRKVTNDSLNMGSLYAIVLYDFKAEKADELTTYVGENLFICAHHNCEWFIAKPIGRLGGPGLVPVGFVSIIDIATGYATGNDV
# Test summary: SPOT array
# Assay context: median of control spots 4347
Kindly provide the number alone.

1. SSAAPPPPPRRATPE 1
2. NHSRSLFSLPGNQQS 353

Which SPOT intensity is reported for this binder? STKKPRPPVKSKPKH 2

Another binder to look at: DKKTKPTPPPKPSHL 1

Another binder to look at: AERNYAPRLPRRETS 0

Another binder to look at: VGFRLALKFPSRITG 0

Another binder to look at: RRGPAPPPPPRASRP 11

Another binder to look at: LEFRAILFIPKRAPF 1
